Hello, the source for this data is PubChem BioAssay AID1851, in case you need it.

target: Cytochrome P450 3A4 (Homo sapiens); assay: Cytochrome panel assay with activity outcomes; settings: recombinant CYP, pro-luciferin dealkylation, luminescence, p450-cyp3a4; series mostly up to 57.1 µM; on activity, negative = inhibition: on the % scale 0 is the no-effect control and ±100 the full control effect
About 5,100 (32%) of roughly 16,000 compounds were called active. Roughly 25% stayed inconclusive and do not appear here. The list shows a part of the results.
Measured parameter: activity, negative = inhibition

Take a look at these entries with their results.
• CN(C)CCCN1c2ccccc2Sc2ccc3ccccc3c21 = -13.6% [at 11.4 µM] (inactive)
• O=C(O)[C@@H]1[C@@H](C(=O)Nc2ncccn2)[C@@H]2C=C[C@@H]1O2 = -13% [at 11.4 µM] (inactive)
• CC(C)C(=O)Cc1ccc2ccccc2n1 = -6.02% [at 11.4 µM] (inactive)
• O=C(O)c1cccc(C(=O)O)c1S(=O)Cc1ccccc1 (stereo unspecified) = -7.75% [at 11.4 µM] (inactive)
• CC(=O)Nc1cccc(NC(=O)C2CCCN2C(=O)Nc2ccccc2C)c1 (stereo unspecified) = 0.0054% [at 11.4 µM] (inactive)
• O=C(O)CSc1nc2ccccc2[nH]1 = 2.87% [at 11.4 µM] (inactive)

Q. Quick check: activity, negative = inhibition of COc1cccc(/C=N/n2c(=S)n(C)c3cc(C)c(C)cc32)c1OC ?
A. -9.43% [at 2.29 µM] (inactive)

Q. Please do the same for Cc1ccc2nc(-c3ccc(NC(=O)Cc4cccs4)cc3)[nH]c2c1 as well.
A. -7.46% [at 2.29 µM] (inactive)

---

biological target: Cytochrome P450 3A4 (Homo sapiens) (UniProt P08684); test: Cytochrome panel assay with activity outcomes; details: recombinant CYP, pro-luciferin dealkylation, luminescence, p450-cyp3a4; series mostly up to 57.1 µM
Sequence (P08684 whole entry, looked up): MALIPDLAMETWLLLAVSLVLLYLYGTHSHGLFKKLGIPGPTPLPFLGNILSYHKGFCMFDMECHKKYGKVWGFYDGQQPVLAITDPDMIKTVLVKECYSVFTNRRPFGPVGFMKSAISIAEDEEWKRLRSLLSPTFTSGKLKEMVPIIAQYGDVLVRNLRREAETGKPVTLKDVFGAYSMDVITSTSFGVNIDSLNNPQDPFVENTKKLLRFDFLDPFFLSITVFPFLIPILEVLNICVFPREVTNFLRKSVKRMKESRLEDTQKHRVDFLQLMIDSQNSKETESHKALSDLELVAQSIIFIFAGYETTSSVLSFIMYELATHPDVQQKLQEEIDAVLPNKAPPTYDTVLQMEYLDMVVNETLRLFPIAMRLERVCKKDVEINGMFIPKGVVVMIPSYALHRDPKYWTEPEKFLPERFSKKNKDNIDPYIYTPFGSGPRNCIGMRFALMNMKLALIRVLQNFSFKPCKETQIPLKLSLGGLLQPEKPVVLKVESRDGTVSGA
About 5,100 (32%) of roughly 16,000 compounds were called active. About 25% were inconclusive and are not listed. Calls come from the whole dose curve; as a rule, active = well fitted curve in the direction sought with a large enough effect; inconclusive = small, poorly fitted or top-dose-only effect, or effect the other way; inactive = no such curve, though single readings can be large or run the other way. Some of the results follow.
Return exactly one item of class 1 = active, class 0 = inactive

Past entries and their recorded results:
- Cc1cc(NC(=O)c2c([N+](=O)[O-])c(C)nn2C)no1: class 0
- c1ccc(-n2cnc3cc(NCc4cccs4)ccc32)cc1: class 1
- Cc1ccccc1N1CCN(C(=O)c2ccccc2NC(=O)/C=C\C(=O)O)CC1: class 0
- Cc1ccc(-c2ccc(CCC(=O)O)o2)cc1: class 0

Q. Would you mind telling me which call this test gave CN1CCN(c2ccc([N+](=O)[O-])cc2NC(=O)c2ccccc2Cl)CC1 ?
A. class 0

Q. Please do the same for CCCN(C(=O)Cc1nc(N)n[nH]1)C1(C(=O)Nc2ccccc2C)CCCCC1 as well.
A. class 1

Q. Please do the same for Cc1ccc(CN2CC34C=CC(O3)C(C(=O)NCc3ccc5c(c3)OCO5)C4C2=O)cc1 (stereo unspecified) as well.
A. class 1

Q. Please do the same for O=C(Nc1ccccc1N1CCN(C(=O)c2ccccc2)CC1)c1cc(Br)ccc1Cl as well.
A. class 1

Q. Please do the same for CC(=O)N(CC(O)CN(C(C)=O)c1c(I)c(C(=O)NC[C@@H](O)CO)c(I)c(C(=O)NC[C@@H](O)CO)c1I)c1c(I)c(C(=O)NC[C@@H](O)CO)c(I)c(C(=O)NC[C@@H](O)CO)c1I as well.
A. class 0

Q. Please do the same for O=C(c1ccc(Cl)c(Cl)c1)c1cc(-c2ccccn2)c(N2CCOCC2)s1 as well.
A. class 1

Q. Please do the same for Cc1cccc(N(CC(=O)NC2CCCC2)C(=O)c2cc3cc4cccc(C)c4nc3s2)c1C as well.
A. class 1
